- System: 616215-338-R-J1-PDC tumor spheroids, viability;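 also: spheroids exposed to agents for 7 days before readout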
- Procedure Details: Anticancer human tumor 616215-338-R-J1-PDC patient-derived colon adenocarcinoma cell line growth inhibition [GQUAD]
- Stated Conditions: curve of compound; spheroids with HUVEC and MSC
Observable: IC50

[
  {
    "Molecule": "Cn1ncnc1[C@H]1c2n[nH]c(=O)c3cc(F)cc(c23)N[C@@H]1c1ccc(F)cc1",
    "IC50": "> 0.316 µM"
  },
  {
    "Molecule": "CC(C)n1c(=O)n(C)c2cnc3cc(F)c(-c4ccc(OCCCN5CCCCC5)nc4)cc3c21",
    "IC50": "> 10 µM"
  },
  {
    "Molecule": "CC(=O)O[C@H]1C(=O)[C@@]2(C)[C@H]([C@H](OC(=O)c3ccccc3)[C@]3(O)C[C@H](OC(=O)[C@H](O)[C@@H](NC(=O)c4ccccc4)c4ccccc4)C(C)=C1C3(C)C)[C@]1(OC(C)=O)CO[C@@H]1C[C@@H]2O",
    "IC50": "< 0.0316 µM"
  }
]

Read the next record carefully.
Tell me its IC50 given C=CC(=O)N1CCN(c2nc(=O)n(-c3c(C)ccnc3C(C)C)c3nc(-c4c(O)cccc4F)c(F)cc23)C(C)C1 (configuration not stated) as the entry. > 10 µM

// provenance: PubChem BioAssay AID2060493
